FYI, the data here is from paper PMC9400797.

biological target: cannabinoid receptor 1 (CB1) (Homo sapiens, UniProt P21554); assay: CB1 radioligand binding assay
Sequence (P21554 whole entry): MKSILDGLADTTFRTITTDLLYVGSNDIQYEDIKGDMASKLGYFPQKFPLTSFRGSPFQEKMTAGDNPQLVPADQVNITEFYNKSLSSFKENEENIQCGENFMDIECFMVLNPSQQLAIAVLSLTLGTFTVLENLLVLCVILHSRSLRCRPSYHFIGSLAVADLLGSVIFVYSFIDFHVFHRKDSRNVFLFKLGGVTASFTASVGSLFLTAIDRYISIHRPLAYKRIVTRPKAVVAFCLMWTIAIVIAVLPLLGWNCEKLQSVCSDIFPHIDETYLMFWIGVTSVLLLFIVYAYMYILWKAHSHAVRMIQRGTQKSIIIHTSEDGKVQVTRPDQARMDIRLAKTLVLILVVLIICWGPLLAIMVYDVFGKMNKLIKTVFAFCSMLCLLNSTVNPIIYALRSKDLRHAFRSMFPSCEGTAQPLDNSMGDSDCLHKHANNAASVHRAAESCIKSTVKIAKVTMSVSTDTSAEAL
property: IC50
Give me the value, and tack the unit on after it.

## Input Value lookup for IC50; key = `BODIPY517/547-genistein`
## Output 375 nM
